Listed substances paired with reported Additional cell line Viability (% of control) SKNDZ
System: SK-N-DZ MYCN-amplified neuroblastoma cell line
ASSAY PROCEDURE: Secondary validation screen of lethal miRNAs, additional cell line, cell viability
Type: cell-based
EXPERIMENTAL CONTEXT: miRNA mimic alone
Experimental: Each of the cell lines were reverse transfected in 384-well plate format with 25 nM of a miRNA from the Dharmacon miRNA mimic or inhibitor libraries (version 16.0) using liquid-handling robot Calliper Sciclone ALH3000 according to the conditions described in Table 3. After 24 hours, media was changed using BioTek 406, and 144 hours post-transfection, cell viability was determined using CellTiter-Glo luminescent assay (Promega) at 1:2 dilution. […]
ASSAY METRIC: Additional cell line Viability (% of control) SKNDZ

SUBSTANCE: hsa-miR-517c-3p (guide AUCGUGCAUCCUUUUAGAGUGU; chemistry not given here; listed as Homo sapiens)
ASSAYED SYSTEM: SK-N-DZ MYCN-amplified neuroblastoma cell line
RECORDED MEASUREMENT: 21 % of control
--
SUBSTANCE: hsa-miR-876-3p (guide UGGUGGUUUACAAAGUAAUUCA; chemistry not given here; listed as Homo sapiens)
ASSAYED SYSTEM: SK-N-DZ MYCN-amplified neuroblastoma cell line
RECORDED MEASUREMENT: 48 % of control
--
SUBSTANCE: hsa-miR-1231 (GUGUCUGGGCGGACAGCUGC; chemistry not given here; listed as Homo sapiens)
ASSAYED SYSTEM: SK-N-DZ MYCN-amplified neuroblastoma cell line
RECORDED MEASUREMENT: 98 % of control

###

System: IMR-90 cells
ASSAY PROCEDURE: Cell toxicity screen of synthetic lethal miRNAs in non-cancer cells
EXPERIMENTAL CONTEXT: IMR-90, miRNA alone (media)
ASSAY METRIC: cell viability in non-cancer cells, Media (% of control)

SUBSTANCE: hsa-miR-99b-5p (guide CACCCGUAGAACCGACCUUGCG; chemistry not given here; listed as Homo sapiens)
RECORDED MEASUREMENT: 87 % of control

SUBSTANCE: hsa-miR-380-3p (UAUGUAAUAUGGUCCACAUCUU; chemistry not given here; listed as Homo sapiens)
RECORDED MEASUREMENT: 99 % of control

SUBSTANCE: hsa-miR-1321 (CAGGGAGGUGAAUGUGAU; chemistry not given here; listed as Homo sapiens)
RECORDED MEASUREMENT: 48 % of control

SUBSTANCE: hsa-miR-515-3p (guide GAGUGCCUUCUUUUGGAGCGUU; chemistry not given here; listed as Homo sapiens)
RECORDED MEASUREMENT: 59 % of control

SUBSTANCE: hsa-miR-485-3p (guide GUCAUACACGGCUCUCCUCUCU; chemistry not given here; listed as Homo sapiens)
RECORDED MEASUREMENT: 79 % of control

SUBSTANCE: hsa-miR-34a-5p (UGGCAGUGUCUUAGCUGGUUGU; chemistry not given here; listed as Homo sapiens)
RECORDED MEASUREMENT: 46 % of control

###

Entries and their Additional cell line Viability (% of control) SKNDZ
System: SK-N-DZ MYCN-amplified neuroblastoma cell line
ASSAY PROCEDURE: Secondary validation screen of lethal miRNAs, additional cell line, cell viability
Assay type: cell-based
EXPERIMENTAL CONTEXT: miRNA mimic alone
ASSAY METRIC: Additional cell line Viability (% of control) SKNDZ

SUBSTANCE: hsa-miR-544a (guide AUUCUGCAUUUUUAGCAAGUUC; chemistry not given here; listed as Homo sapiens)
RECORDED MEASUREMENT: 59 % of control

SUBSTANCE: hsa-miR-634 (guide AACCAGCACCCCAACUUUGGAC; chemistry not given here; listed as Homo sapiens)
RECORDED MEASUREMENT: 41 % of control

SUBSTANCE: hsa-miR-148b-5p (AAGUUCUGUUAUACACUCAGGC; chemistry not given here; listed as Homo sapiens)
RECORDED MEASUREMENT: 21 % of control

SUBSTANCE: hsa-miR-550a-3p (guide UGUCUUACUCCCUCAGGCACAU; chemistry not given here; listed as Homo sapiens)
RECORDED MEASUREMENT: 82 % of control

SUBSTANCE: hsa-miR-1262 (AUGGGUGAAUUUGUAGAAGGAU; chemistry not given here; listed as Homo sapiens)
RECORDED MEASUREMENT: 13 % of control

SUBSTANCE: hsa-miR-654-5p (guide UGGUGGGCCGCAGAACAUGUGC; chemistry not given here; listed as Homo sapiens)
RECORDED MEASUREMENT: 28 % of control

SUBSTANCE: hsa-miR-489 (guide GUGACAUCACAUAUACGGCAGC; chemistry not given here; listed as Homo sapiens)
RECORDED MEASUREMENT: 33 % of control

SUBSTANCE: hsa-miR-103a-2-5p (AGCUUCUUUACAGUGCUGCCUUG; chemistry not given here; listed as Homo sapiens)
RECORDED MEASUREMENT: 52 % of control

Reference source: patent US20190300882A1
